- System: MDA-MB-453
- experimentDescription: Growth inhibition of human MDA-MB-453 cells at 10 uM after 72 hrs by MTT assay
- Assay type: functional
- statedConditions: MDA-MB-453, 72 h, read-out: GI
measuredEndpoint: inhibition of growth at 10 µM (%)
Output spec: scalar in %, unitless text.

Task: Fill in inhibition of growth at 10 µM for record `O=C(Nc1ccc(Cl)c(C(=O)Nc2ccc(-c3ncc[nH]3)nc2)c1)c1ccc(Cl)c(C(F)(F)F)c1`
Output: 49.3

Task: Determine its reported inhibition of growth at 10 µM: `Cc1cc(C(=O)Nc2ccc(Cl)c(C(=O)Nc3ccc(-c4ncc[nH]4)nc3)c2)ccc1Cl`
Output: 51.1

Task: Find the measured inhibition of growth at 10 µM of `O=C(Nc1ccc(Cl)c(C(=O)Nc2ccc(-c3ncc[nH]3)nc2)c1)c1ccc(Cl)c(Br)c1` and report it.
Output: 15.1

Task: Return inhibition of growth at 10 µM (reported value) for this compound: `Cc1cccc(C(=O)Nc2ccc(Cl)c(C(=O)Nc3ccc(-c4ncc[nH]4)nc3)c2)c1`
Output: 23.6

Task: Return reported inhibition of growth at 10 µM. Input compound: `Cc1ccc(NC(=O)c2cccc(F)c2)cc1C(=O)Nc1ccc(-c2ncc[nH]2)nc1`
Output: 14.9

Task: Given `O=C(Nc1ccc(Cl)c(C(=O)Nc2ccc(-c3ncc[nH]3)nc2)c1)c1ccc(Cl)c(Cl)c1` , respond with its inhibition of growth at 10 µM.
Output: 45.3

Task: Give the measured inhibition of growth at 10 µM for `COc1cccc(C(=O)Nc2ccc(C)c(C(=O)Nc3ccc(-c4ncc[nH]4)nc3)c2)c1`
Output: 18

Task: Return inhibition of growth at 10 µM (reported value) for this compound: `Cc1cc(C(=O)Nc2ccc(C)c(C(=O)Nc3ccc(-c4ncc[nH]4)nc3)c2)ccc1Cl`
Output: 27.7

Task: Retrieve inhibition of growth at 10 µM measured for `O=C(Nc1ccc(Cl)c(C(=O)Nc2ccc(-c3ncc[nH]3)nc2)c1)c1cccc(F)c1` and print it.
Output: 19
